Reference source: patent US8772498B2

Assay: Stability in buffer at various pH values
Type: physicochemical
Conditions: pH 7.4, 37° C.
Counter-ions that a name gives are not always drawn.
Endpoint: % test substance after 4 h (F(t = 4 h) × 100/F(t = 0 h)) (%)

Use the examples below as a reference point.
N#Cc1c(SCc2csc(-c3ccc(Cl)cc3)n2)nc(N2CCCC2)c(C#N)c1-c1ccc(OCCOC(=O)[C@@H](N)CCCN)cc1 [Example 59, bis(trifluoroacetate)]    0
N#Cc1c(SCc2csc(-c3ccc(Cl)cc3)n2)nc(N2CCCC2)c(C#N)c1-c1ccc(OCCOC(=O)CCN)cc1 [Example 50, trifluoroacetate]    94
CCCNc1nc(SCc2csc(-c3ccc(Cl)cc3)n2)c(C#N)c(-c2ccc(OCCOC(=O)[C@H](C)NC(=O)[C@@H](N)CCCCN)cc2)c1C#N [Example 54, bis(trifluoroacetate)]    29
C[C@H](N)C(=O)N[C@@H](C)C(=O)OCCOc1ccc(-c2c(C#N)c(SCc3csc(-c4ccc(Cl)cc4)n3)nc(N3CCCC3)c2C#N)cc1 [Example 44, hydrochloride]    78

[a] CC[C@H](C)[C@H](N)C(=O)N[C@@H](C)C(=O)OCCOc1ccc(-c2c(C#N)c(SCc3csc(-c4ccc(Cl)cc4)n3)nc(N3CCCC3)c2C#N)cc1 [Example 63, hydrochloride]
[b] C[C@H](NC(=O)[C@@H](N)CCCCN)C(=O)OCCOc1ccc(-c2c(C#N)c(SCc3csc(-c4ccc(Cl)cc4)n3)nc(N3CCCC3)c2C#N)cc1 [Example 41, dihydrochloride]
Task: Field: lower % test substance after 4 h (F(t = 4 h) × 100/F(t = 0 h)) | Options: a / b Let me know the label of the one you choose.
Result: b
(b: 37%, a: 93%)

====

Assay: Determination of the solubility in 5% strength aqueous dextrose solution
Assay type: physicochemical
Conditions: saline or isotonic, thermodynamic from solid, room temperature, 24 h
Structures can show the parent of a compound that is named as a salt.
Endpoint: solubility at 24 h (µg/mL)

C[C@H](NC(=O)[C@@H](N)CCCN)C(=O)OCCOc1ccc(-c2c(C#N)c(SCc3csc(-c4ccc(Cl)cc4)n3)nc(N3CCCC3)c2C#N)cc1 [Example 58, bis(trifluoroacetate)]    470

[1] CCCNc1nc(SCc2csc(-c3ccc(Cl)cc3)n2)c(C#N)c(-c2ccc(OCCOC(=O)[C@H](C)NC(=O)[C@@H](N)CCCCN)cc2)c1C#N [Example 54, bis(trifluoroacetate)]
[2] CNc1nc(SCc2csc(-c3ccc(Cl)cc3)n2)c(C#N)c(-c2ccc(OCCOC(=O)[C@@H](N)CCCN)cc2)c1C#N [Example 52, bis(trifluoroacetate)]
[3] C[C@H](N)C(=O)N[C@@H](C)C(=O)OCCOc1ccc(-c2c(C#N)c(SCc3csc(-c4ccc(Cl)cc4)n3)nc(N3CCCC3)c2C#N)cc1 [Example 44, hydrochloride]
Task: Rank descending by solubility at 24 h. A ranking is expressed here by listing the labels in the requested order.
Result: 1, 3, 2
(1: 640 µg/mL, 3: 410 µg/mL, 2: 280 µg/mL)

====

Assay: Stability in buffer at various pH values
Format: physicochemical
Settings: pH 4, 37° C.
Structures can show the parent of a compound that is named as a salt.
Endpoint: % test substance after 4 h (F(t = 4 h) × 100/F(t = 0 h)) (%)

C[C@H](N)C(=O)N[C@@H](C)C(=O)OCCOc1ccc(-c2c(C#N)c(SCc3csc(-c4ccc(Cl)cc4)n3)nc(N3CCCC3)c2C#N)cc1 [Example 44, hydrochloride]    99
N#Cc1c(SCc2csc(-c3ccc(Cl)cc3)n2)nc(N2CCCC2)c(C#N)c1-c1ccc(OCCOC(=O)CCN)cc1 [Example 50, trifluoroacetate]    99
C[C@H](NC(=O)[C@@H](N)CCCCN)C(=O)OCCOc1ccc(-c2c(C#N)c(SCc3csc(-c4ccc(Cl)cc4)n3)nc(N3CCCC3)c2C#N)cc1 [Example 41, dihydrochloride]    97

====

Target: adenosine A1 receptor (Homo sapiens)
Sequence (P30542 whole entry): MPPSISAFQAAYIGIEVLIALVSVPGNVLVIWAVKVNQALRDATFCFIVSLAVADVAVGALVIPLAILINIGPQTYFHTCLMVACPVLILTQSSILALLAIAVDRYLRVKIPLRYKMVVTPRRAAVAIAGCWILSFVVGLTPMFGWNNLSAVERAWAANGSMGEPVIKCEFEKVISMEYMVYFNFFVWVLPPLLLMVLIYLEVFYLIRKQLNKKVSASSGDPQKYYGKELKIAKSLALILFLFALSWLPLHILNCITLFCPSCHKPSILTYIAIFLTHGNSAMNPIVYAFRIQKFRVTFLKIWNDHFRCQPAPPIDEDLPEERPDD
Experiment: Indirect determination of adenosine agonism by gene expression (luciferase), A1 cells
Details: CHO cells, luciferase readout, 1 μM forskolin
Endpoint: EC50 (nM)

Use the examples below as a reference point.
N#Cc1c(SCc2csc(-c3ccc(Cl)cc3)n2)nc(N2CCOCC2)c(C#N)c1-c1ccc(OCCO)cc1    0.3
COCCN(C)c1nc(SCc2csc(-c3ccc(Cl)cc3)n2)c(C#N)c(-c2ccc(OCCO)cc2)c1C#N    0.9

[I] COC1CCN(c2nc(SCc3csc(-c4ccc(Cl)cc4)n3)c(C#N)c(-c3ccc(OCCO)cc3)c2C#N)CC1
[II] N#Cc1c(SCc2csc(-c3ccc(Cl)cc3)n2)nc(N2CCCC2)c(C#N)c1-c1ccc(OCCO)cc1
[III] CCNc1nc(SCc2csc(-c3ccc(Cl)cc3)n2)c(C#N)c(-c2ccc(OCCO)cc2)c1C#N
Task: Please list these in order of increasing EC50. Thank you! A ranking is expressed here by listing the labels in the requested order.
Result: II, III, I
(II: 0.1 nM, III: 0.3 nM, I: 0.6 nM)

[1] CCN(C)c1nc(SCc2csc(-c3ccc(Cl)cc3)n2)c(C#N)c(-c2ccc(OCCO)cc2)c1C#N
[2] N#Cc1c(NCCF)nc(SCc2csc(-c3ccc(Cl)cc3)n2)c(C#N)c1-c1ccc(OCCO)cc1
Task: Choose between 1 and 2 : whose measured EC50 value is numerically larger? Let me know the label of the one you choose.
Result: 1
(1: 0.5 nM, 2: 0.05 nM)

====

Assay: Stability in buffer at various pH values
Assay type: physicochemical
Settings: pH 4, 37° C.
Counter-ions that a name gives are not always drawn.
Endpoint: % test substance after 4 h (F(t = 4 h) × 100/F(t = 0 h)) (%)

CCCNc1nc(SCc2csc(-c3ccc(Cl)cc3)n2)c(C#N)c(-c2ccc(OCCOC(=O)[C@H](C)NC(=O)[C@@H](N)CCCCN)cc2)c1C#N [Example 54, bis(trifluoroacetate)]    98
CC[C@H](C)[C@H](N)C(=O)N[C@@H](C)C(=O)OCCOc1ccc(-c2c(C#N)c(SCc3csc(-c4ccc(Cl)cc4)n3)nc(N3CCCC3)c2C#N)cc1 [Example 63, hydrochloride]    98
N#Cc1c(SCc2csc(-c3ccc(Cl)cc3)n2)nc(N2CCCC2)c(C#N)c1-c1ccc(OCCOC(=O)[C@@H](N)CCCN)cc1 [Example 59, bis(trifluoroacetate)]    99

====

Molecular target: adenosine A2a receptor (Homo sapiens, UniProt P29274)
Sequence (P29274 whole entry): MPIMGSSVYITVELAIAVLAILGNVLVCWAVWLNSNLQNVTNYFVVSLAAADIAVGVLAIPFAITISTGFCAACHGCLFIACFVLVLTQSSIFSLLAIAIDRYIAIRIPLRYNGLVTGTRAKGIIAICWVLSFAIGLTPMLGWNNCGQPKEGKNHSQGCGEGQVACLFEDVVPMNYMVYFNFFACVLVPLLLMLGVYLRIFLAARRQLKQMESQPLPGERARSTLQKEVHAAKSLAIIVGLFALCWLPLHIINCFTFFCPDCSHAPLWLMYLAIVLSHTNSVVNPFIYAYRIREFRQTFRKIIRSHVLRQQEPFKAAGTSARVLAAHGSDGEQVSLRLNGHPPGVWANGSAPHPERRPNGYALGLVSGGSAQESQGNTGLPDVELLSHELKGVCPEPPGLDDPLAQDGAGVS
Experiment: Indirect determination of adenosine agonism by gene expression (luciferase), A2a cells
Conditions: CHO cells, luciferase readout
Excerpt: B-1. Indirect Determination of the Adenosine Agonism by Way of Gene Expression Cells of the CHO (Chinese Hamster Ovary) permanent cell line are transfected stably with the cDNA for the adenosine receptor subtypes A1, A2a and A2b. The adenosine A1 receptors are coupled to the adenylate cyclase by way of G, proteins, while the adenosine A2a and A2b receptors are coupled by way of Gs proteins. In correspondence with this, the formation of cAMP in the cell is inhibited or stimulated, respectively. […]
pEC50: −log10 of the molar value.
Endpoint: pEC50

CCN(C)c1nc(SCc2csc(-c3ccc(Cl)cc3)n2)c(C#N)c(-c2ccc(OCCO)cc2)c1C#N    6.50
COC1CCN(c2nc(SCc3csc(-c4ccc(Cl)cc4)n3)c(C#N)c(-c3ccc(OCCO)cc3)c2C#N)CC1    6.54
N#Cc1c(NC2CC2)nc(SCc2csc(-c3ccc(Cl)cc3)n2)c(C#N)c1-c1ccc(OCCO)cc1    6.55
N#Cc1c(SCc2csc(-c3ccc(Cl)cc3)n2)nc(N2CCCC2)c(C#N)c1-c1ccc(OCCO)cc1    6.17

[P] COCCN(C)c1nc(SCc2csc(-c3ccc(Cl)cc3)n2)c(C#N)c(-c2ccc(OCCO)cc2)c1C#N
[Q] CCNc1nc(SCc2csc(-c3ccc(Cl)cc3)n2)c(C#N)c(-c2ccc(OCCO)cc2)c1C#N
[R] N#Cc1c(NCCF)nc(SCc2csc(-c3ccc(Cl)cc3)n2)c(C#N)c1-c1ccc(OCCO)cc1
Task: Please list these in order of increasing pEC50. Thank you! A ranking is expressed here by listing the labels in the requested order.
Result: P, Q, R

====

Experiment: Stability in buffer at various pH values
Format: physicochemical
Details: pH 4, 37° C.
Counter-ions that a name gives are not always drawn.
Endpoint: % test substance after 24 h (F(t = 24 h) × 100/F(t = 0 h)) (%)

CC[C@H](C)[C@H](N)C(=O)N[C@@H](C)C(=O)OCCOc1ccc(-c2c(C#N)c(SCc3csc(-c4ccc(Cl)cc4)n3)nc(N3CCCC3)c2C#N)cc1 [Example 63, hydrochloride]    98
C[C@H](NC(=O)[C@@H](N)CCCCN)C(=O)OCCOc1ccc(-c2c(C#N)c(SCc3csc(-c4ccc(Cl)cc4)n3)nc(N3CCCC3)c2C#N)cc1 [Example 41, dihydrochloride]    99
N#Cc1c(SCc2csc(-c3ccc(Cl)cc3)n2)nc(N2CCCC2)c(C#N)c1-c1ccc(OCCOC(=O)[C@@H](N)CCCN)cc1 [Example 59, bis(trifluoroacetate)]    95
C[C@H](N)C(=O)N[C@@H](C)C(=O)OCCOc1ccc(-c2c(C#N)c(SCc3csc(-c4ccc(Cl)cc4)n3)nc(N3CCCC3)c2C#N)cc1 [Example 44, hydrochloride]    99
CCCNc1nc(SCc2csc(-c3ccc(Cl)cc3)n2)c(C#N)c(-c2ccc(OCCOC(=O)[C@H](C)NC(=O)[C@@H](N)CCCCN)cc2)c1C#N [Example 54, bis(trifluoroacetate)]    97
N#Cc1c(SCc2csc(-c3ccc(Cl)cc3)n2)nc(N2CCCC2)c(C#N)c1-c1ccc(OCCOC(=O)CCN)cc1 [Example 50, trifluoroacetate]    99
